Readings of dCas9 with SSAP activity (normalized) for the listed molecules
# Test system: gene editing with dCas9
# Assay explanation: Screen of 322 new SSAP proteins, gene editing activity with dCas9 (Table 5)
# Format: cell-based
# Particulars: normalized
Hey, just send me the number, nothing else.

Completed entries (count: 3):
SSAP_207: SEQ ID NO: 376; Mycobacterium sp. 1245499.0 (protein, listed as Mycobacterium sp.) TTQPEYKPVAQGADKQMTTGKLLKMLEPEIGRALPKGMDPDRICRLVMTEVRKNPMLTQCTQESFAGALLTASALGLEPGVNGEAWLVPYRDRKRGIVECQFIMGYNGVAKLFWQSPHADRLDAQLVCANDHFRYVKGLSPILEHVESDGDRGDPIAYYAIVGVKGAQPMWDVFKPEAIAQLRGGRVGTKGDIDDPQRWMERKTALKQVLKLAPKSTRLDLAIRADERSGSDLYKSQGMEVHAIEPGFIETEAEPETQEQ
−1.345
SSAP_169: SEQ ID NO: 338; Streptomyces showdoensis (protein, listed as Streptomyces showdoensis) TSDARNAVARRAANVGQVEQAGEQPKPTMAQQIERMKPEIARALPKHMDADRIARIALTLIRKNPDLANCTTESFLGALMTCSQLGFEPGSPTQEAYIIPRKGQAEFQLGYQGMVTLFYQHPMASSVKVETVRENDYFEHEEGLEERLIHRPFADGPRGKAIAYYSVARLINGGRTFKVMYPAEIEERRQKLPSKNSPAWRDNYDEMAKKTVLRNHFKALPKSAELARALAHDGTVRTDWQPDAIDVPPEYLSEPQRPELEAGAQ
−0.528
SSAP_6: SEQ ID NO: 175 (protein) STALATLAGKLAERVGMDSVDPQELITTLRQTAFKGDASDAQFIALLIVANQYGLNPWTKEIYAFPDKQNGIVPVVGVDGWSRIINENQQFDGMDFEQDNESCTCRIYRKDRNHPICVTEWMDECRREPFKTREGREITGPWQSHPKRMLRHKAMIQCARLAFGFAGIYDKDEAERIVENTAYTAERQPERDITPVNDETMQEINTLLIALDKTWDDDLLPLCSQIFRRDIRASSELTQAEAVKALGFLKQKATEQKVAA
−1.399

The record that follows has no dCas9 with SSAP activity (normalized) shown yet.
Q: Look up dCas9 with SSAP activity (normalized) of SSAP_132: SEQ ID NO: 301; Enterocloster clostridioformis (protein, listed as Enterocloster clostridioformis) GIDVKHELEKRAAGQDKPVKLTRNMTIADMVKALEPEIKRALPAILTPERFTRMALSAVNNTPELANCTPMSFIAALMNAAQLGLEPNTPLGQAYLIPYKNKGTLECQFQLGYKGLIDLAYRTGQIQIIQAQAVREFDYFEYQYGLDSRLVHKPGNEERGQITFIYGLFKLSNGGYGFEVSNKAEMDAFAAKYSKSFGSKYSPWTEDYESMAKKTVIKRALKYAPVSSDFQKALSLDETVKSEIAVDMSEIRNDCIPADMGTEAA and report it.
Result: −0.536

Reference source: patent US20250034594A1
